B1: CPEB3 Ribozyme (parent)
chain: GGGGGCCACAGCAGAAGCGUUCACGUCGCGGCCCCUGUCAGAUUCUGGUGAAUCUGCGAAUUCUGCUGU

- Variants of: B1
- assayRemarks: self-cleavage, relative activity (ratio to wild type); higher = more cleavage; co-transcriptional
Listed next: entries and their corresponding self-cleavage.

mutation: A52U C66A
self-cleavage: 0.701

mutation: A16U U62C
self-cleavage: 0.734

mutation: G50U G56U
self-cleavage: 0.91

mutation: A23G A59U
self-cleavage: 0.817

mutation: C7G C27G
self-cleavage: 0.112

mutation: G1A C57U
self-cleavage: 0.0557

mutation: U43A G50C
self-cleavage: 0.91

mutation: G3C G4U
self-cleavage: 0.0461

mutation: C18U G28A
self-cleavage: 0.909

mutation: C34A U62C
self-cleavage: 0.358

mutation: U36G U43G
self-cleavage: 0.231

mutation: G19A C24A
self-cleavage: 0.124

mutation: A40G C66A
self-cleavage: 0.54

mutation: G5A C33A
self-cleavage: 0.296

Taken from the RNAGym collection of RNA variant scans (doi:10.7554/elife.80360).
